# GI50 per record follows
System tested: Her2 Exon 20 INSYVMA Ba/F3 (Homo sapiens, UniProt P04626, DUP772-775, cells depend on it)
Sequence (P04626 with tags, fused parts or gaps DUP772-775): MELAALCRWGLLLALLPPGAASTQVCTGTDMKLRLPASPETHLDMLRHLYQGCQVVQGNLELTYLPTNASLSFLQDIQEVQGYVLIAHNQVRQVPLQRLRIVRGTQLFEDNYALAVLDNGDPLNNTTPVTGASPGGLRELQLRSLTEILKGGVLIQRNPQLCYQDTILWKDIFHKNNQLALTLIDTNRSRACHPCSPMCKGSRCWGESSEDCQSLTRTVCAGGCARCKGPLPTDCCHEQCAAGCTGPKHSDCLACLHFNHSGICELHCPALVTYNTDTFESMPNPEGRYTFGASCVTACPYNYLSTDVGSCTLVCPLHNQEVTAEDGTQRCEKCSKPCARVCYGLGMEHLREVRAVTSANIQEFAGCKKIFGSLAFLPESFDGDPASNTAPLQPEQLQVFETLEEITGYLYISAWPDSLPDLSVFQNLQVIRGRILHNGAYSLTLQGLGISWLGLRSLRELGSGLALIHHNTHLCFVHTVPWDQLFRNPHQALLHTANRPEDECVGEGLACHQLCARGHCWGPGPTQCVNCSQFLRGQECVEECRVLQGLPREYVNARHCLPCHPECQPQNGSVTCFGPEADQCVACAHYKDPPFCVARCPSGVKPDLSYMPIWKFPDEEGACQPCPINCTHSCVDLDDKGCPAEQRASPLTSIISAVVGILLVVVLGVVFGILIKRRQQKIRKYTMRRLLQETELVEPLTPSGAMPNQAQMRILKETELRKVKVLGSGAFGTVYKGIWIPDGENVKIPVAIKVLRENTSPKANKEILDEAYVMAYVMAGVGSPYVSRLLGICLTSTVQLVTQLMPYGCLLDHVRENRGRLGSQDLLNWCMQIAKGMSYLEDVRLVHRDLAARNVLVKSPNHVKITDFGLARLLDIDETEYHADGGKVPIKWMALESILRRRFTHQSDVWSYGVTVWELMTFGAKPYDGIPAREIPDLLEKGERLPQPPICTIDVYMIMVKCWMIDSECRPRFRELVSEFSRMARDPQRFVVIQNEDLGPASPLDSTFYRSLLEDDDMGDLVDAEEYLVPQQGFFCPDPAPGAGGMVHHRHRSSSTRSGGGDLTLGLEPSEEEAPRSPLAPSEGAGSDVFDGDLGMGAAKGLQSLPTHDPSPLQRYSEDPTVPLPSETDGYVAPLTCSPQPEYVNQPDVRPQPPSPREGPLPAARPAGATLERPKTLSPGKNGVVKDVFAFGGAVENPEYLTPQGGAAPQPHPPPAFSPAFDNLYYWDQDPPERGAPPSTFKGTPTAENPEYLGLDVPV
Test: Her2 Exon 20 INSYVMA Ba/F3 CellTiter-Glo
Assay type: cell-based
Settings: CellTiter-Glo, 72 h, read-out: Her2 Exon 20 INSYVMA Ba/F3 CTG IC50

molecule="C=CC(=O)N1CCc2ccc(-c3c(-c4ccc(N(C)CCN(C)C)cc4)[nH]c4nccc(Cl)c34)cc21 [Example 65]" result="100 to 500 nM"
molecule="C=CC(=O)Nc1cc(-c2c(-c3cnc(N4CCN(C)CC4)s3)[nH]c3ncc(C(=O)OC(C)C)cc23)ccc1C [Example 169]" result="500 to 1000 nM"
molecule="C=CC(=O)Nc1cc(-c2c(-c3ccc(N4CCN(C)CC4)cc3)[nH]c3ncc(NC(=O)C(C)C)cc23)ccc1C [Example 200, 2,2,2-trifluoroacetate]" result="100 to 500 nM"
molecule="C=CC(=O)Nc1cc(-c2c(-c3cccc(OCCN4CCCC4)c3)[nH]c3nccc(Cl)c23)ccc1C [Example 37]" result="100 to 500 nM"
molecule="C=CC(=O)Nc1cc(-c2c(-c3cnc(N4CCN(C)CC4)nc3)[nH]c3ncc(C(=O)OC(C)C)cc23)ccc1C [Example 175]" result="1000 to 10000 nM"

Lookup: Provide one value: measured GI50 of C=CC(=O)Nc1cc(-c2c(-c3ccc(N4CCN(CC)CC4)cc3)[nH]c3ncc(C(=O)OC(C)C)cc23)ccc1C [Example 157]
Found: 100 to 500 nM

Lookup: Provide one value: measured GI50 of C=CC(=O)Nc1cc(-c2c(-c3ccc(C4CCN(C)CC4)cc3)[nH]c3nccc(Cl)c23)cc(C)c1C [Example 152]
Found: 100 to 500 nM

Lookup: Provide one value: measured GI50 of C=CC(=O)Nc1cc(-c2c(-c3cccc(CN4CCOCC4)c3)[nH]c3nccc(Cl)c23)ccc1C [Example 7]
Found: 500 to 1000 nM

Lookup: Provide one value: measured GI50 of C=CC(=O)Nc1cc(-c2c(-c3ccc(N4CCN(S(=O)(=O)CC)CC4)cc3)[nH]c3nccc(Cl)c23)ccc1C [Example 15]
Found: 100 to 500 nM

Lookup: Provide one value: measured GI50 of C=CC(=O)N1CCc2ccc(-c3c(-c4ccc(CN5CCN(C)CC5)cc4)[nH]c4nccc(OC)c34)cc21 [Example 113]
Found: ≤ 100 nM

Lookup: Provide one value: measured GI50 of C=CC(=O)Nc1cc(-c2c(-c3ccc(N4CCN(C)CC4)cc3)[nH]c3ncc(C(=O)NCc4cccc(NC(C)=O)c4)cc23)ccc1C [Example 121]
Found: > 10000 nM

Lookup: Provide one value: measured GI50 of C=CC(=O)Nc1cc(-c2c(-c3ccc(N4CCN(C)CC4)cc3)[nH]c3ncc(CC)cc23)ccc1C [Example 191, 2,2,2-trifluoroacetate]
Found: 100 to 500 nM

====

System tested: Her2 Exon 20 INSYVMA Ba/F3 (Homo sapiens, UniProt P04626, DUP772-775, cells depend on it)
Test: Her2 Exon 20 INSYVMA Ba/F3 CellTiter-Glo
Format: cell-based
Settings: CellTiter-Glo, 72 h, read-out: Her2 Exon 20 INSYVMA Ba/F3 CTG IC50
Parameter measured: GI50

Reference set (5 entries):
compound=C=CC(=O)Nc1cc(-c2c(-c3ccc(S(=O)(=O)N4CCN(C)CC4)cc3)[nH]c3ncc(C(=O)OC(C)C)cc23)ccc1C parameter_measured=GI50 result="500 to 1000 nM"
compound=C=CC(=O)Nc1cc(-c2c(-c3cccc(N4CCN(C(C)=O)CC4)c3)[nH]c3nccc(Cl)c23)ccc1C parameter_measured=GI50 result="500 to 1000 nM"
compound=C=CC(=O)N1CCc2ccc(-c3c(-c4cccc(OCCN5CCCC5)c4)[nH]c4nccc(Cl)c34)cc21 parameter_measured=GI50 result="100 to 500 nM"
compound=C=CC(=O)N1CCc2ccc(-c3c(-c4ccc(N5CCN(C(C)=O)CC5)cc4)[nH]c4nccc(Cl)c34)cc21 parameter_measured=GI50 result="1000 to 10000 nM"
compound=C=CC(=O)Nc1cc(-c2c(-c3ccc(N4CCN(C)CC4)nc3)[nH]c3ncc(C(=O)OC(C)C)cc23)cc(F)c1C parameter_measured=GI50 result="500 to 1000 nM"

Lookup: Provide one value: measured GI50 of `Cc1ccc(-c2c(-c3ccc(N4CCN(C)CC4)cc3)[nH]c3ncc(C(=O)OC(C)C)cc23)cc1NC(=O)/C=C/CN(C)C`
Found: 100 to 500 nM

Lookup: Provide one value: measured GI50 of `C=CC(=O)Nc1cc(-c2c(-c3cncnc3)[nH]c3nccc(Cl)c23)ccc1C`
Found: 500 to 1000 nM

Lookup: Provide one value: measured GI50 of C=CC(=O)Nc1cc(-c2c(-c3ccc(N4CCN(C)CC4)cc3)[nH]c3ncc(C#N)cc23)ccc1C [Example 97, 2,2,2-trifluoroacetate]
Found: 100 to 500 nM

Lookup: Provide one value: measured GI50 of `C=CC(=O)Nc1cc(-c2c(-c3ccc(CN4CCN(C)CC4)cc3)[nH]c3nccc(OC)c23)ccc1C`
Found: 100 to 500 nM

Lookup: Provide one value: measured GI50 of Cc1ccc(-c2c(-c3ccc(N4CCN(C)CC4)cc3)[nH]c3nccc(Cl)c23)cc1NC(=O)CCl [Example 146, 2,2,2-trifluoroacetate]
Found: 100 to 500 nM

Lookup: Provide one value: measured GI50 of C=CC(=O)Nc1cc(-c2c(-c3ccc(N4CCN(C)CC4)cc3)[nH]c3ncc(C(=O)OC)cc23)ccc1C [Example 134, 2,2,2-trifluoroacetate]
Found: 100 to 500 nM

Lookup: Provide one value: measured GI50 of `C=CC(=O)Nc1cc(-c2c(-c3ccc(CN(C)C)cc3)[nH]c3ncc(C(=O)OC(C)C)cc23)cc(F)c1C`
Found: 100 to 500 nM

Lookup: Provide one value: measured GI50 of `C=CC(=O)Nc1cc(-c2c(-c3ccnc(N4CCOCC4)c3)[nH]c3ncccc23)ccc1C`
Found: 1000 to 10000 nM

Lookup: Provide one value: measured GI50 of `C=CC(=O)Nc1cc(-c2c(-c3ccc(N4CCN(C)CC4)cc3)[nH]c3ncc(Cl)c(C)c23)ccc1C`
Found: 500 to 1000 nM
